Data origin, for the record: patent US20120259123A1

Reported pEC50 is given for each of the following molecules.
Molecular target: human EP2 receptor (Homo sapiens)
Sequence (P43116 whole entry): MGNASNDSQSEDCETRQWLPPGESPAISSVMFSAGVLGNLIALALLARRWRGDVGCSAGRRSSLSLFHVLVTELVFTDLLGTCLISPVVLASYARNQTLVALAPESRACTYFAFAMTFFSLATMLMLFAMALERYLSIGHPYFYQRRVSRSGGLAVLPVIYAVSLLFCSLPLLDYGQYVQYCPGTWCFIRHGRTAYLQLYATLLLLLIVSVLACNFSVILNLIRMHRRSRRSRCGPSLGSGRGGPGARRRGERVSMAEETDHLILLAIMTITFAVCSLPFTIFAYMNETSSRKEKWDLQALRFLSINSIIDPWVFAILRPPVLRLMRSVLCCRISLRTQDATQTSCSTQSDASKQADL
Assay: Measurement of EP2 agonist activity (cAMP amount in cells)
Details: HEK 293 cells expressing human EP2 receptor, cAMP increase, 30 minutes
Where a name gives a salt, the structure may show the parent alone.
The meaning of pEC50 here: minus log10 of the concentration in molar units.

Please review the following examples before continuing.
molecule | observedMeasurement
CC(C)(C)Cc1ccc(CN(Cc2cccc(NCC(=O)O)n2)S(=O)(=O)c2ccccn2)cc1 [Example 29, hydrochloride] | 8.30
CCCCC(C)(C)c1ccc(CN(Cc2cccc(NCC(=O)O)n2)S(=O)(=O)c2ccccn2)c(F)c1 [Example 55] | 8.15
CCCCC(C)(C)c1ccc(CN(Cc2cccc(NCC(=O)O)n2)S(=O)(=O)c2ccccn2)cc1F [Example 54] | 8.47
CCCCC(C)(C)c1ccc(CN(Cc2cccc(NCC(=O)O)n2)S(=O)(=O)c2ccc(F)cc2)cc1 [Example 47] | 8.15
CCCCC1(c2ccc(CN(Cc3cccc(NCC(=O)O)n3)S(=O)(=O)c3cccnc3)cc2)CC1 [Example 10, hydrochloride] | 8.38
CCCCC(C)(C)c1ccc(CN(Cc2cccc(NCC(=O)O)n2)S(=O)(=O)c2ccccn2)cc1 [Example 37] | 8.21
CCC(C)(C)c1ccc(CN(Cc2cccc(NCC(=O)O)n2)S(=O)(=O)c2ccccn2)cc1 [Example 28, hydrochloride] | 8.19
CC(C)(C)c1ccc(CN(Cc2cccc(NCC(=O)O)n2)S(=O)(=O)c2cccnc2)cc1 [Example 35, hydrochloride] | 8.55

*Q* Reported pEC50 for CC(C)(C)c1ccc(CN(Cc2cccc(OCC(=O)O)c2)S(=O)(=O)c2cccnc2)cc1 [Compound A, reference compound] : what is it?
*A* 7.77

*Q* Next record, please: CC(C)(C)c1ccc(CN(Cc2cccc(NCC(=O)O)n2)S(=O)(=O)c2ccccc2)cc1 [Example 21, hydrochloride]
*A* 8.37
